# Assayed System: Cbl-b (Homo sapiens (Human), UniProt Q13191)
# Sequence (Q13191 40-426): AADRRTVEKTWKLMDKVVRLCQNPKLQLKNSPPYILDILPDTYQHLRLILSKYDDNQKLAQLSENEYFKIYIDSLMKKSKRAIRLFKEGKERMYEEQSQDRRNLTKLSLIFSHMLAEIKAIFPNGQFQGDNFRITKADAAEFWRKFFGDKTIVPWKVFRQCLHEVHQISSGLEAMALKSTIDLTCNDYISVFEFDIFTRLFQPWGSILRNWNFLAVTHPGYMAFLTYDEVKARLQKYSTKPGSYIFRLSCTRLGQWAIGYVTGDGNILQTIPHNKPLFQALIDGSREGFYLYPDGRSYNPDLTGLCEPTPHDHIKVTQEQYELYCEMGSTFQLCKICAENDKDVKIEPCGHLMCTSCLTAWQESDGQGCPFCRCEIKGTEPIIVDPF
# Assay Remarks: Cbl-b LCK Ub TR-FRET assay (Cbl-b Lck HTRF)
# Format: biochemical
Measured Property: IC50 (nM)

Cn1cnnc1[C@@H](F)C1(c2cccc(N3Cc4c(cc(CN5CC[C@@H](F)C5)cc4C(F)(F)F)C3=O)c2)COC1 [Compound 81]	270
Cn1cnnc1[C@H](F)C1(c2cccc(N3Cc4c(cc(CN5CCC[C@@H](CO)C5)cc4C(F)(F)F)C3=O)c2)COC1 [Compound 151]	61
Cn1cnnc1CC1(c2cccc(N3Cc4c(cc([C@@H](N)C5CC5)cc4C(F)(F)F)C3=O)c2)CC(F)(F)C1 [Compound 453]	14

[I] Cn1cnnc1[C@H](F)C1(c2cccc(N3Cc4c(cc(CN5CC(C)(O)C5)cc4C(F)(F)F)C3=O)c2)COC1 [Compound 161]
[II] Cn1cnnc1CC1(c2cc(C3CC3)nc(N3Cc4c(cc(CNC5(C)CCC5)cc4C(F)(F)F)C3=O)c2)COC1 [Compound 300]
[III] CC(C)[C@H]1CN(C)CCN1Cc1cc2c(c(C(F)(F)F)c1)CN(c1cccc(C3([C@@H](F)c4nncn4C)CC(F)(F)C3)c1)C2=O [Compound 189]
[IV] Cc1cnnn1CC1(c2cccc(N3Cc4c(cc(CN5CCN(C)C[C@@H]5C(C)C)cc4C(F)(F)F)C3=O)c2)COC1 [Compound 222]
[V] CC(C)N(C)Cc1cc2c(c(C(F)(F)F)c1)CN(c1cccc(C3([C@@H](F)c4nncn4C)CC(F)(F)C3)c1)C2=O [Compound 419]
Ascending by IC50, please. Output spec: labels arranged per the requested ranking.
II, III, IV, I, V
(II: 5.6 nM, III: 12 nM, IV: 22 nM, I: 62 nM, V: 360 nM)

[1] CO[C@H]1CCCN(Cc2cc3c(c(C(F)(F)F)c2)CN(c2cccc(C4(Cc5nncn5C)CC(F)(F)C4)c2)C3=O)C1 [Compound 443]
[2] Cn1cnnc1[C@H](F)C1(c2cccc(N3Cc4c(Br)cc(CNC5(C)CCC5)cc4C3=O)c2)COC1 [Compound 471]
Endpoint returns whichever of 1 and 2 has the numerically higher IC50. Your answer should be the label of the entry you select.
1

[1] Cn1cnnc1CC1(c2cc(NCC3CCNCC3)nc(N3Cc4c(cc(CNC5(C)CCC5)cc4C(F)(F)F)C3=O)c2)CCC1 [Compound 339]
[2] Cn1cnnc1[C@H](F)C1(c2cccc(N3Cc4c(cc(CN5CCC(F)(CO)CC5)cc4C(F)(F)F)C3=O)c2)COC1 [Compound 133]
[3] Cn1cnnc1CC1(c2cc(NC3CCCC3)cc(N3Cc4c(cc(CNC5(C)CCC5)cc4C(F)(F)F)C3=O)c2)COC1 [Compound 480]
[4] C[C@@H](NC1(C)CCC1)c1cc2c(c(C(F)(F)F)c1)CN(c1cccc(C3(Cc4nncn4C)CC(F)(F)C3)c1)C2=O [Compound 245]
Arrange the 4 molecules from largest to smallest IC50. Output spec: labels arranged per the requested ranking.
1, 2, 3, 4
(1: 530 nM, 2: 90 nM, 3: 59 nM, 4: 13 nM)

[a] Cn1cnnc1[C@@H](F)C1(c2cccc(N3Cc4c(cc(CN5CC(C)(CO)C5)cc4C(F)(F)F)C3=O)c2)CC1 [Compound 125]
[b] C[C@H](NC1(C)CCC1)c1cc2c(c(C(F)(F)F)c1)CN(c1cccc(C3([C@@H](F)c4nncn4C)COC3)c1)C2=O [Compound 248]
Endpoint returns whichever of a and b has the numerically higher IC50. Your answer should be the label of the entry you select.
a

[a] Cn1cnnc1[C@@H](F)C1(c2cccc(N3Cc4c(cc(CN5CC6(C5)CC6(F)F)cc4C(F)(F)F)C3=O)c2)COC1 [Compound 154]
[b] CC(C)NCc1cc2c(c(C(F)(F)F)c1)CN(c1cccc(C3(Cc4nncn4C)CC(F)(F)C3)c1)C2=O [Compound 415]
[c] CC(C)Nc1cc(N2Cc3c(cc(CNC4(C)CCC4)cc3C(F)(F)F)C2=O)cc(C2(Cc3nncn3C)CCC2)c1 [Compound 462]
[d] CC(C)[C@H]1CN(C)CCN1Cc1cc2c(c(C(F)(F)F)c1)CN(c1cccc(C3([C@H](F)c4nncn4C)CC(F)(F)C3)c1)C2=O [Compound 190]
Ascending by IC50, please. Output spec: labels arranged per the requested ranking.
c, b, d, a
(c: 8.3 nM, b: 16 nM, d: 47 nM, a: 72 nM)

[A] COCC1(F)CN(Cc2cc3c(c(C(F)(F)F)c2)CN(c2cccc(C4([C@@H](F)c5nncn5C)COC4)c2)C3=O)C1 [Compound 135]
[B] Cn1cnnc1[C@H](F)C1(c2cccc(N3Cc4c(cc(CN5CC6(CC6)C5)cc4C(F)(F)F)C3=O)c2)COC1 [Compound 78]
Param metric = IC50; output whichever of A , B has the minimum value. Your answer should be the label of the entry you select.
B
(B: 53 nM, A: 96 nM)

[a] Cn1cnnc1CC1(c2cccc(N3Cc4c(cc(CNC5(C)CC(F)C5)cc4C(F)(F)F)C3=O)c2)CC(F)(F)C1 (centres unmarked) [Compound 341]
[b] Cn1cnnc1CC1(c2cc(-c3ccc4ccccc4c3)nc(N3Cc4c(cc(CNC5(C)CCC5)cc4C(F)(F)F)C3=O)c2)CCC1 [Compound 350]
Param metric = IC50; output whichever of a , b has the minimum value. Your answer should be the label of the entry you select.
a
(a: 14 nM, b: 28 nM)

Reference for the values: patent US20250230147A1
